molecular target: Gamma-aminobutyric acid receptor subunit alpha-4/beta3/delta (Homo sapiens, UniProt O14764+P28472+P48169); assay: Positive allosteric modulation of extrasynaptic alpha4beta3delta GABA-A receptor (unknown origin) transfected in CHO cells assessed as potentiation of GABA-induced peak current amplitude at -80 mV holding potential preincubated for 30 secs followed by GABA stimulation for 2 secs by manual patch assay
Sequence (P28472 whole entry): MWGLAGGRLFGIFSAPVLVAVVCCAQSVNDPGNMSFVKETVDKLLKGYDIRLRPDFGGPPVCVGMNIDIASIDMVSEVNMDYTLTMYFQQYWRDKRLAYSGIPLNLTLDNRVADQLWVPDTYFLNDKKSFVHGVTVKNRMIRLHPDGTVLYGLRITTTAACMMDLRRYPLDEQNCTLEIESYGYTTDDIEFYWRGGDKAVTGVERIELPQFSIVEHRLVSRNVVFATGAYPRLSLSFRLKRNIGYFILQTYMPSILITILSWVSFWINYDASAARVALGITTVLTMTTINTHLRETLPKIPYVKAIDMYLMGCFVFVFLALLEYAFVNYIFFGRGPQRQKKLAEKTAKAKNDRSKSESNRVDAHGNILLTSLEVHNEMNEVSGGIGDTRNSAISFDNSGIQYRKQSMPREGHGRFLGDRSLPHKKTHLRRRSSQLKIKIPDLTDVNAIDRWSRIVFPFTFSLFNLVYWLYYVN
Sequence (P48169 whole entry): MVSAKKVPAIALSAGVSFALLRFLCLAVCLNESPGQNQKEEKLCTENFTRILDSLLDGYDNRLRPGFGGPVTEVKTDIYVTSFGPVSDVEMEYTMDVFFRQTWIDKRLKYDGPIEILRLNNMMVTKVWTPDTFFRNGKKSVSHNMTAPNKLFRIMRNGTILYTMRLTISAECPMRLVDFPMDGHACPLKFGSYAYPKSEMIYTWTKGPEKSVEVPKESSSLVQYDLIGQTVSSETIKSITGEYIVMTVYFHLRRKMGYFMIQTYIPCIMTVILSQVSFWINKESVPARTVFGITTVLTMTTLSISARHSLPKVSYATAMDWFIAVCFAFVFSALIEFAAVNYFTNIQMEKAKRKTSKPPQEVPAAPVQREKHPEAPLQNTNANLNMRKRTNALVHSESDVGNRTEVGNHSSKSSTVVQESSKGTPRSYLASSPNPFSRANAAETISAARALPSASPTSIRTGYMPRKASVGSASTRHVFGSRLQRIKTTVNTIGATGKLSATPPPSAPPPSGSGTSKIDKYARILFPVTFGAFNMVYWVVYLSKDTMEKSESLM
Sequence (O14764 whole entry): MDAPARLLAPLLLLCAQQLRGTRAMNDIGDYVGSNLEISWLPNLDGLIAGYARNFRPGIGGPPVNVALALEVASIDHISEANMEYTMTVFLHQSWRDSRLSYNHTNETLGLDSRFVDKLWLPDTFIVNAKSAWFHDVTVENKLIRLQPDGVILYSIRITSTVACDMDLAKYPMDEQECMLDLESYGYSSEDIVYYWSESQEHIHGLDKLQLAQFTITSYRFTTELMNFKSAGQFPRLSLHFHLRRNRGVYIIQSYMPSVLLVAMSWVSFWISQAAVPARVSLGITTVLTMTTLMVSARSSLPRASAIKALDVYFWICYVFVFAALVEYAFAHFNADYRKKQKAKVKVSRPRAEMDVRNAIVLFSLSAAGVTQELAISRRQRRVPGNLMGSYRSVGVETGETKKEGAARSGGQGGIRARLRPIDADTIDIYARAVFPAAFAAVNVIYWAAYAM
MEASURED_PROPERTY: pEC50
// field semantics: pEC50 = negative decimal log of concentration (mol/L)

Short answer for "C[C@@]1(O)CC[C@H]2[C@H](CC[C@@H]3[C@@H]2CC[C@]2(C)[C@@H](C(=O)Cn4cnn(-c5cncc(F)c5)c4=O)CC[C@@H]32)C1" : pEC50 was 6.82

Data point: "C[C@@]1(O)CC[C@H]2[C@H](CC[C@@H]3[C@@H]2CC[C@]2(C)[C@@H](C(=O)Cn4cnn(-c5cc(F)ccc5F)c4=O)CC[C@@H]32)C1" ; pEC50 = 7.10

Record "C[C@@]1(O)CC[C@H]2[C@H](CC[C@@H]3[C@@H]2CC[C@]2(C)[C@@H](C(=O)Cn4ccn(-c5cccc(F)c5)c4=O)CC[C@@H]32)C1" . Reported pEC50: 6.86

====

Items are presented alongside their recorded Emax.
molecular target: GABA-A receptor; alpha-1/beta-2/gamma-2 (Homo sapiens) (UniProt P14867+P47870+P18507); assay: Positive allosteric modulation of synaptic alpha1beta2gamma2 GABA-A receptor (unknown origin) transfected in LTK cells assessed as potentiation of GABA-induced peak current amplitude by measuring maximal efficacy at 0.01 to 10 uM at -80 mV holding potential preincubated for 30 secs followed by GABA stimulation for 2 secs by Q-patch assay relative to control; assay type: cell-based; conditions: filed as positive allosteric modulator, dose 0.01-10 µM, time 32.0 sec

Here is how some molecules turned out for Emax.
>  <SUBSTANCE_SMILES>
Cn1ncn(CC(=O)[C@H]2CC[C@H]3[C@@H]4CC[C@@H]5C[C@](C)(O)CC[C@@H]5[C@H]4CC[C@]23C)c1=O

>  <Emax>
242%

$$$$
>  <SUBSTANCE_SMILES>
C[C@@]1(O)CC[C@H]2[C@H](CC[C@@H]3[C@@H]2CC[C@]2(C)[C@@H](C(=O)Cn4cnn(C5CCCCC5)c4=O)CC[C@@H]32)C1

>  <Emax>
873%

$$$$

Consider the record given below.
Memo: "C[C@@]1(O)CC[C@H]2[C@H](CC[C@@H]3[C@@H]2CC[C@]2(C)[C@@H](C(=O)Cn4ccn(-c5cccc(F)c5)c4=O)CC[C@@H]32)C1" , reported Emax: 594%

====

assay: Ratio of Cmax in IG dosed Sprague-Dawley rat brain to plasma; assay type: ADME, organism-based; details: brain and plasma, po, read-out: BPR
MEASURED_PROPERTY: Kp

Item: "C[C@@]1(O)CC[C@H]2[C@H](CC[C@@H]3[C@@H]2CC[C@]2(C)[C@@H](C(=O)Cn4cnn(-c5cc(F)nc(F)c5)c4=O)CC[C@@H]32)C1" | Kp: 1.5

====

molecular target: Gamma-aminobutyric acid receptor subunit alpha-4/beta3/delta (Homo sapiens, UniProt O14764+P28472+P48169); experiment: Positive allosteric modulation of extrasynaptic alpha4beta3delta GABA-A receptor (unknown origin) transfected in CHO cells assessed as potentiation of GABA-induced peak current amplitude at -80 mV holding potential preincubated for 30 secs followed by GABA stimulation for 2 secs by manual patch assay
MEASURED_PROPERTY: pEC50
Lab note: report pEC50 as minus log10 of the concentration in molar units, number only.

Study these solved cases before continuing.
>  <SUBSTANCE_SMILES>
C[C@@]1(O)CC[C@H]2[C@H](CC[C@@H]3[C@@H]2CC[C@]2(C)[C@@H](C(=O)Cn4cnn(-c5cccc(N)c5)c4=O)CC[C@@H]32)C1

>  <OBSERVED_MEASUREMENT>
6.67

$$$$
>  <SUBSTANCE_SMILES>
C[C@@]1(O)CC[C@H]2[C@H](CC[C@@H]3[C@@H]2CC[C@]2(C)[C@@H](C(=O)Cn4cnn(CC(F)(F)F)c4=O)CC[C@@H]32)C1

>  <OBSERVED_MEASUREMENT>
5.91

$$$$
>  <SUBSTANCE_SMILES>
C[C@@]1(O)CC[C@H]2[C@H](CC[C@@H]3[C@@H]2CC[C@]2(C)[C@@H](C(=O)Cn4cnn(-c5cccc(C#N)c5)c4=O)CC[C@@H]32)C1

>  <OBSERVED_MEASUREMENT>
7.30

$$$$
>  <SUBSTANCE_SMILES>
C[C@@]1(O)CC[C@H]2[C@H](CC[C@@H]3[C@@H]2CC[C@]2(C)[C@@H](C(=O)Cn4cnn(-c5cc(F)nc(F)c5)c4=O)CC[C@@H]32)C1

>  <OBSERVED_MEASUREMENT>
7.12

$$$$
>  <SUBSTANCE_SMILES>
C[C@@]1(O)CC[C@H]2[C@H](CC[C@@H]3[C@@H]2CC[C@]2(C)[C@@H](C(=O)Cn4cc(C#N)cn4)CC[C@@H]32)C1

>  <OBSERVED_MEASUREMENT>
6.87

$$$$

Per the record, "C[C@@]1(O)CC[C@H]2[C@H](CC[C@@H]3[C@@H]2CC[C@]2(C)[C@@H](C(=O)Cn4cnn(C5CCCCC5)c4=O)CC[C@@H]32)C1" has pEC50 of 6.63

Entry "C[C@@]1(O)CC[C@H]2[C@H](CC[C@@H]3[C@@H]2CC[C@]2(C)[C@@H](C(=O)Cn4cnn(-c5cccc(OC(F)(F)F)c5)c4=O)CC[C@@H]32)C1" , pEC50 reported as 7.39

Item: "CC(C)(C)n1ncn(CC(=O)[C@H]2CC[C@H]3[C@@H]4CC[C@@H]5C[C@](C)(O)CC[C@@H]5[C@H]4CC[C@]23C)c1=O" | pEC50: 6.57

According to the records, this compound "C[C@@]1(O)CC[C@H]2[C@H](CC[C@@H]3[C@@H]2CC[C@]2(C)[C@@H](C(=O)Cn4nnn(-c5cccc(F)c5)c4=O)CC[C@@H]32)C1" displays pEC50 of 7.64

Per the records, this compound ( "C[C@@]1(O)CC[C@H]2[C@H](CC[C@@H]3[C@@H]2CC[C@]2(C)[C@@H](C(=O)Cn4cnn(-c5cccc(F)c5F)c4=O)CC[C@@H]32)C1" ) has pEC50 equal to 7.38

Please fill in: pEC50 reported for "C[C@@]1(O)CC[C@H]2[C@H](CC[C@@H]3[C@@H]2CC[C@]2(C)[C@@H](C(=O)Cn4cnn(-c5ccc6c(c5)OCO6)c4=O)CC[C@@H]32)C1" = 6.58

====

assay: Metabolic stability in human liver microsomes assessed as intrinsic clearance at 1 uM preincubated for 10 mins followed by NADPH addition by LC-MS analysis; type: ADME, Microsome; conditions: read-out: CLH
This section presents molecules with their documented CLint scaled at 1 µM values.
Unit mL/min/kg implied. Number only.

Consider the reported CLint scaled at 1 µM for these molecules:
>  <MOLECULE>
C[C@@]1(O)CC[C@H]2[C@H](CC[C@@H]3[C@@H]2CC[C@]2(C)[C@@H](C(=O)Cn4cnn(CC5CC5)c4=O)CC[C@@H]32)C1

>  <UNIT>
mL/min/kg

>  <CLint scaled at 1 µM>
38

$$$$
>  <MOLECULE>
C[C@@]1(O)CC[C@H]2[C@H](CC[C@@H]3[C@@H]2CC[C@]2(C)[C@@H](C(=O)Cn4nnn(-c5cccc(F)c5)c4=O)CC[C@@H]32)C1

>  <UNIT>
mL/min/kg

>  <CLint scaled at 1 µM>
11

$$$$
>  <MOLECULE>
C[C@@]1(O)CC[C@H]2[C@H](CC[C@@H]3[C@@H]2CC[C@]2(C)[C@@H](C(=O)Cn4cc(C#N)cn4)CC[C@@H]32)C1 [ZURANOLONE]

>  <UNIT>
mL/min/kg

>  <CLint scaled at 1 µM>
10.6

$$$$
>  <MOLECULE>
C[C@@]1(O)CC[C@H]2[C@H](CC[C@@H]3[C@@H]2CC[C@]2(C)[C@@H](C(=O)Cn4cnn(-c5cccc(F)c5)c4=O)CC[C@@H]32)C1

>  <UNIT>
mL/min/kg

>  <CLint scaled at 1 µM>
3.9

$$$$
>  <MOLECULE>
C[C@@]1(O)CC[C@H]2[C@H](CC[C@@H]3[C@@H]2CC[C@]2(C)[C@@H](C(=O)Cn4cnn(-c5ccnc(F)c5)c4=O)CC[C@@H]32)C1

>  <UNIT>
mL/min/kg

>  <CLint scaled at 1 µM>
23

$$$$

Now look at this one.
For record "COc1cccc(-n2ncn(CC(=O)[C@H]3CC[C@H]4[C@@H]5CC[C@@H]6C[C@](C)(O)CC[C@@H]6[C@H]5CC[C@]34C)c2=O)c1" the listed CLint scaled at 1 µM is 24
